Here's a batch of molecules along with measured pKi for UniProt:P02550.
Sequence (P02550 whole entry, looked up): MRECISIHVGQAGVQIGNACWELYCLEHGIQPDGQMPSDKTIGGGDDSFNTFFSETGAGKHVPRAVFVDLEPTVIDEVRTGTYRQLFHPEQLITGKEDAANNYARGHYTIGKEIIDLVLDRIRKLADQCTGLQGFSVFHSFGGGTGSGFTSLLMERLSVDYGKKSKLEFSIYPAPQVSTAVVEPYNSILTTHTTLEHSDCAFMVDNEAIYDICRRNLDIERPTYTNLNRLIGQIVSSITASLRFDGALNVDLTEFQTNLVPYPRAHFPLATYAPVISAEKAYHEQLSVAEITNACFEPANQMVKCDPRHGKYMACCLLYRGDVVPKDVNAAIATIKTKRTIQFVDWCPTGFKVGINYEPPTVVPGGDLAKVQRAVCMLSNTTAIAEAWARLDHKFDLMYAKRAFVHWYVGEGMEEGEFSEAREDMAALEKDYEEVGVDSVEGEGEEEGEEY
Answers are plain numbers, as −log10 of the molar value.

For every listed record, write down its pKi.
1. CNc1ccc2c(cc1=O)[C@@H](NC(C)=O)CCc1cc(OC)c(OC)c(OC)c1-2
2. COc1ccc(-c2ccc(SC)c(=O)cc2)c(OC)c1OC
3. COc1ccc(-c2ccc(OC)c(=O)cc2)c(OC)c1OC

Completion:
1. 6.12
2. 4.66
3. 4.94
